# System: Mtb
# assay info: Mtb inhibition (antibacterial activity)
# Assay type: cell-based, Mycobacterium tuberculosis
# Set-up: concentration or dose not given beside the values
# setup conditions: Table 5
Consider the reported % Mtb inhibition of an entry and match it to a band in LOW = under 20%, MID = from 20% up to 30%, HIGH = 30% and over

Recorded results for 3 compounds are shown here.
[
  {
    "structure as smiles": "Cc1c(CCC(=O)O)c(=O)oc2cc3occ(-c4ccc(Cl)cc4)c3cc12",
    "assigned class": "LOW"
  },
  {
    "structure as smiles": "Cc1coc2cc3oc(=O)c(CCC(=O)O)c(C)c3cc12",
    "assigned class": "LOW"
  },
  {
    "structure as smiles": "Cc1c(CCC(=O)O)c(=O)oc2c(C)c3occ(-c4ccc(Br)cc4)c3cc12",
    "assigned class": "HIGH"
  }
]

Hey, which category is Cc1c(CCC(=O)O)c(=O)oc2c(C)c3occ(-c4ccc(Cl)cc4)c3cc12 in, do you know? LOW

Then Cc1c(CCC(=O)O)c(=O)oc2c(C)c3occ(-c4ccccc4)c3cc12 ? HIGH

Then Cc1c(CCC(=O)O)c(=O)oc2c(C)c3occ(-c4ccc(N5CCCC5)cc4)c3cc12 ? LOW

Then Cc1c(CC(=O)O)c(=O)oc2c(C)c3occ(-c4ccc(Br)cc4)c3cc12 ? MID

Then Cc1c(C)c2cc3c(-c4ccc(Br)cc4)coc3c(C)c2oc1=O ? MID

Then Cc1c(CCC(=O)O)c(=O)oc2c(C)c3occ(-c4ccc(F)cc4)c3cc12 ? HIGH

###

# Tested on: DNA
# assay info: DNA binding, intercalation and photo-induced crosslinking

[
  {
    "structure as smiles": "COc1ccc2c(c1)/c(=C\\c1ccc(N(C)C)cc1)c1cc(-c3ccccc3)[n+](C)n12.O=S(=O)([O-])C(F)(F)F",
    "DNA intercalator": "DNA intercalators"
  },
  {
    "structure as smiles": "CN1/C(=C/c2cc[n+](C)c3ccccc23)Sc2ccccc21.Cc1ccc(S(=O)(=O)[O-])cc1",
    "DNA intercalator": "DNA intercalators"
  },
  {
    "structure as smiles": "CCOc1ccc2nc3cc(N)ccc3c(N)c2c1",
    "DNA intercalator": "DNA intercalators"
  },
  {
    "structure as smiles": "CN(C)c1ccc2cc3ccc(N(C)C)cc3nc2c1",
    "DNA intercalator": "DNA intercalators"
  }
]

###

# tested target: E. coli DNA gyrase (Escherichia coli, UniProt P0AES4+P0AES6)
# assay info: Agarose gel-based DNA gyrase inhibition assays
# Type: biochemical
# setup conditions: 50 μM of compounds
# Procedure: 100 ng of DNA gyrase was used to supercoil the rx pAB1 in the presence of different concentrations of a gyrase inhibitor. […] Samples were analyzed by electrophoresis in 1% w/v agarose gels followed by ethidium bromide staining and photographed under UV light.
measurement type: inhibition of E. coli DNA gyrase activities

Study these solved cases before continuing.
[
  {
    "compound": "Cc1cccc2c1N=C(O)C2=NNc1ccc(S(C)(=O)=O)cc1",
    "tested target": "E. coli DNA gyrase (Escherichia coli, UniProt P0AES4+P0AES6)",
    "value measured": "completely inhibited"
  },
  {
    "compound": "Cc1c(CCC(=O)O)c(=O)oc2c(C)c3occ(-c4ccccc4)c3cc12",
    "tested target": "E. coli DNA gyrase (Escherichia coli, UniProt P0AES4+P0AES6)",
    "value measured": "completely inhibited"
  },
  {
    "compound": "NN=C1c2ccccc2C(=O)C1C(=O)C(c1ccccc1)c1ccccc1 (centres unmarked)",
    "tested target": "E. coli DNA gyrase (Escherichia coli, UniProt P0AES4+P0AES6)",
    "value measured": "inhibited"
  },
  {
    "compound": "O=C1Nc2ccc(Br)cc2C1=NNc1ccc(C(=O)O)cc1",
    "tested target": "E. coli DNA gyrase (Escherichia coli, UniProt P0AES4+P0AES6)",
    "value measured": "completely inhibited"
  }
]

Okay, now this compound:
For O=C1NC(=S)SC1=Cc1cc(Cl)cc(Cl)c1O , what is its reported inhibition of E. coli DNA gyrase activities? inhibited

###

# tested target: E. coli DNA gyrase (Escherichia coli, UniProt P0AES4+P0AES6)
# assay info: E. coli DNA gyrase inhibition (agarose gel-based and/or SDFQ-based, not specified per value)
# Assay type: biochemical
# setup conditions: Table 2 values; read-out: IC50 ( ≤15 μM) IC50
As shown below, each of these molecules has a reported IC50 value.
Report the value in µM with no unit label.

[
  {
    "molecule": "O=C(O)CCCCCN1C(=O)/C(=C\\c2ccc(-c3ccc(Cl)cc3)o2)SC1=S [Compound 36]",
    "tested target": "E. coli DNA gyrase (Escherichia coli, UniProt P0AES4+P0AES6)",
    "IC50 / µM": 7.42
  },
  {
    "molecule": "O=C1/C(=C\\c2ccc(O)c([N+](=O)[O-])c2)SC(=S)N1Cc1ccccc1 [Compound 192]",
    "tested target": "E. coli DNA gyrase (Escherichia coli, UniProt P0AES4+P0AES6)",
    "IC50 / µM": 8
  },
  {
    "molecule": "O=C(O)CCN1C(=O)/C(=C/c2ccc(-c3nc4ccccc4s3)o2)SC1=S [Compound 27]",
    "tested target": "E. coli DNA gyrase (Escherichia coli, UniProt P0AES4+P0AES6)",
    "IC50 / µM": 1.74
  }
]

Okay, now this molecule:
For O=C(O)c1cccc(-c2ccc(/C=c3/sc4nc5ccccc5n4c3=O)o2)c1 [Compound 47] , what is its reported IC50? 1.87

###

As shown below, each of these compounds has a reported pIC50 value.
# tested target: E. coli DNA gyrase (Escherichia coli, UniProt P0AES4+P0AES6)
# assay info: E. coli DNA gyrase inhibition (agarose gel-based and/or SDFQ-based, not specified per value)
# Type: biochemical
# setup conditions: Table 2 values; read-out: IC50 ( ≤15 μM) IC50
On this scale, pIC50 is minus log10 of a concentration expressed in M (mol/L).

Study these solved cases before continuing.
[
  {
    "compound": "O=C(O)C(c1ccccc1)N1C(=O)/C(=C\\c2ccc(-c3cccc(Cl)c3)o2)SC1=S (stereo not drawn)",
    "value measured": 5.70
  },
  {
    "compound": "COc1cc2ccccc2cc1C(=O)NC(=S)Nc1ccc(C(=O)O)cc1",
    "value measured": 4.91
  },
  {
    "compound": "N=C(N)Nc1nc(-c2ccccc2)c2cc(Cl)ccc2n1",
    "value measured": 5.51
  },
  {
    "compound": "CNC(=O)[C@H]1O[C@@H](n2cnc3c(NCc4cccc(I)c4)nc(Cl)nc32)[C@H](O)[C@@H]1O",
    "value measured": 5.60
  },
  {
    "compound": "N#C/C(=C\\c1coc2ccc(O)cc2c1=O)C(=O)/N=c1\\[nH]c2ccccc2s1",
    "value measured": 5.20
  },
  {
    "compound": "O=C(O)C(Cc1ccccc1)N1C(=O)/C(=C\\C=C\\c2ccco2)SC1=S (stereo not drawn)",
    "value measured": 5.00
  },
  {
    "compound": "CC(C)(CS(=O)(=O)[O-])NC(=O)CC[N+](C)(C)CCO",
    "value measured": 5.66
  },
  {
    "compound": "Cc1cc(C)c2sc(NC(=O)C3CC3)nc2c1",
    "value measured": 5.10
  }
]

Okay, now this compound:
For CSc1nc(SCC(=O)O)c2sc3nc(-c4ccccc4)c4c(c3c2n1)CCC4 , what is its reported pIC50? 5.45

###

# Test system: S. aureus (ATCC 14775)
# assay info: Minimum inhibitory concentration, S. aureus
# Assay type: cell-based
# setup conditions: Staphylococcus aureus, ATCC14775; Tables 3a-3c; read-out: Minimum Inhibitory Concentration S. aureus
measurement type: MIC (µM)
Report the value in µM with no unit label.

[
  {
    "structure as smiles": "Cc1coc2cc3oc(=O)c(CCC(=O)O)c(C)c3cc12",
    "MIC [µM]": 200
  }
]

Okay, now this molecule:
For Cc1cc(NN=Cc2ccc([N+](=O)[O-])o2)nc2ccccc12 , what is its reported MIC? 200

###

# tested target: E. coli DNA gyrase (Escherichia coli, UniProt P0AES4+P0AES6)
# assay info: E. coli DNA gyrase inhibition (agarose gel-based and/or SDFQ-based, not specified per value)
# Type: biochemical
As shown below, each of these compounds has a reported IC50 value.

Study these solved cases before continuing.
[
  {
    "compound": "O=C1NC(=S)SC1=Cc1cc(Cl)cc(Cl)c1O",
    "IC50": "50 to 200 µM"
  },
  {
    "compound": "Cc1c(CCC(=O)O)c(=O)oc2cc3occ(-c4ccc(Br)cc4)c3cc12",
    "IC50": "11.4 µM"
  },
  {
    "compound": "C[n+]1c(-c2ccc(C=NNC(=O)c3ccc(C(=O)NN=Cc4ccc(-c5cn6ccccc6[n+]5C)cc4)cc3)cc2)cn2ccccc21",
    "IC50": "25 to 50 µM"
  }
]

Okay, now this compound:
For NN=C1c2ccccc2C(=O)C1C(=O)C(c1ccccc1)c1ccccc1 (stereo not shown) , what is its reported IC50? 50 to 200 µM
